Assay: serotonin-gated TRPC4 signal block – cell-based, second counter screen, HEK293 TRPC4/5HT1a, Fluo-4, counter-screen for TRPC4 inhibitor project, confirmation (AID 434978)
Conditions: Fluo-4 calcium flux, at 10 µM, serotonin added to trigger calcium flux
Activity calls are given as the source filed them.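 Rule for the calls: active = primary screen active whose calcium signal fell more than 3 SD beyond the full-serotonin control mean in both duplicate plates; inactive = the rest.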
Hi! Could you answer with just one of these? active, inactive

So what was the verdict on `COc1ccc(Nc2nc(N)c3ccccc3n2)c(OC)c1` in this test? active

Record lookup: outcome of this test for `N#CCCn1cc(CNCc2ccccc2)c(-c2cccc([N+](=O)[O-])c2)n1` ? active

Outcome? CC1(C(=O)OCc2cc(=O)n3cc(Br)ccc3n2)CC1(Cl)Cl (stereo not drawn) inactive

Hi team, can someone confirm the assay call for `O=C(NCCN1CCOCC1)c1ccc2c(c1)N(Cc1ccc(F)cc1)C(=O)CS2` ? inactive

State the result this test recorded for `Cc1cccc(C(=O)Nc2sc(-c3ccccc3)cc2C(=O)O)c1` . active

Recorded call for `COc1ccccc1N1CCN(Cc2cc(=O)c(OCC(=O)NC3CCCC3)co2)CC1` ? inactive

Write down the call the test reported for this compound. Item: `NCCCNC(=O)c1cc2ccccc2[nH]1` inactive

Per the assay record, what outcome was assigned to `Cc1ccc2oc(C(=O)N3CCC(O)(c4ccccc4)CC3)c(C)c2c1` ? inactive

Per the records of this test, what outcome belongs to `Clc1ccc(CN2C3=NCCN3c3ccccc32)cc1Cl` ? active

Hi, do you know how COc1cccc(OCc2cc(C(=O)N3CCN(C)C(c4ccccc4)C3)no2)c1 (stereo not drawn) came out in this test? inactive

# lookup: test call for `CN(C)CCCN(C(=O)c1ccc(Cl)s1)c1nc2cc3c(cc2s1)OCO3` inactive

How did this test come out for O=C(NCC(c1ccco1)N1CCc2ccccc2C1)c1ccc(F)cc1 (stereo not drawn) ? inactive

Answer briefly: the call reported for `C/C(=N/OCO/N=C(/C)c1ccc(F)cc1)c1ccc(F)cc1` in this assay. inactive

Would you mind telling me which call this test gave CC(C)C(NC(=O)c1ccc(C(C)(C)C)cc1)C(=O)NCC(c1ccccc1)N(C)C (stereo not drawn) ? inactive

Outcome? CC1CC(C)CN(CCCNC(=O)c2ccc(N3CCCC3=O)cc2)C1 (stereo not drawn) inactive

Name the outcome recorded for `Cc1sc(NC(=O)c2ccccc2)c(C(=O)NCCN(C)C)c1C` in the assay. inactive

Returns: the outcome recorded for `CC#CC[N+](C)(C)CCCCCCCCCCCC` in this assay. active

Each compound tested received a call. Report the one for `CCOc1ccccc1N(CC(=O)N1CCOCC1)S(=O)(=O)c1ccc(SC)cc1` . inactive

Identify the outcome logged in this assay for the compound shown: `Cc1ccccc1Cn1c(CN2CCc3ccccc3C2)nc2c1c(=O)n(C)c(=O)n2C` inactive

Please state the recorded outcome for this compound: `O=C(CCN1CCN(Cc2ccccc2)CC1)Nc1ccc(OCc2ccccc2)cc1` inactive

What call does the record list for `O=C(NC1CC1)c1ccc2c(c1)N(Cc1ccc(Cl)cc1)CCS2` ? inactive

Could you please tell me the result logged for COc1ccc(C(CNC(=O)c2cc(C)on2)N(C)C)cc1 (stereo not drawn) in this assay? inactive

I would be grateful if you could indicate the recorded call for `Cc1ccsc1C(=O)OCC(=O)NCCNC(=O)COC(=O)c1sccc1C` . inactive
